I'd be grateful if you could share measured fraction unbound for these entries.
test.summary: Unbound fraction in human plasma
Format: ADME, cell-free
One number for each entry.

INSERT INTO measurements (smiles_data, endpoint_value) VALUES
  ('Cc1cc(N2C[C@H]3CC[C@@H](C2)[C@@H]3Nc2nc3n(n2)CCCN3c2cc(F)cc(F)c2)ncn1', 0.01);

QUERY: What does the data say about its fraction unbound? Entry: Cc1cc(N2C[C@H]3CC[C@@H](C2)[C@@H]3Nc2nc3n(n2)CCCC[C@H]3c2ccc(F)c(F)c2F)ncn1
RESULT: 0.054

* * *

test.summary: Volume of distribution at steady state in Wistar rat at 1 mg/kg, iv administered as single dose
Format: ADME, organism-based
condition.description: in vivo, read-out: Vdss
endpoint.label: Vd (L/kg)
Give bare numbers, in L/kg.

QUERY: What does the data say about its Vd? Entry: Cc1cc(N2C[C@H]3CC[C@@H](C2)[C@@H]3Nc2nc3n(n2)CCCN3c2cc(F)cc(F)c2)ncn1
RESULT: 1.1

Every entry's value here was drawn from ChEMBL document CHEMBL4616706.
